tgt: UniProt:P00533
method-notes: Inhibition of N-terminal GST-tagged human EGFR cytoplasmic domain (669-1210 AA) expressed in baculovirus using FAM-labelled peptide as substrate pre-incubated for 10 mins followed by substrate addition by mobility shift assay

smi: COc1cc(Nc2cc(NC(=O)Nc3c(Cl)cccc3Cl)ncn2)cc(OC)c1
IC50 / nM: 315

smi: COc1ccc(OC)c(Nc2cc(NC(=O)Nc3c(Cl)cccc3Cl)ncn2)c1
IC50 / nM: 202

smi: Cc1cc(F)cc(Nc2cc(NC(=O)Nc3c(Cl)cccc3Cl)ncn2)c1
IC50 / nM: 528

* * *

Test system: Epidermal growth factor receptor (Homo sapiens), P00533 [L858R]
Sequence (P00533 whole entry L858R): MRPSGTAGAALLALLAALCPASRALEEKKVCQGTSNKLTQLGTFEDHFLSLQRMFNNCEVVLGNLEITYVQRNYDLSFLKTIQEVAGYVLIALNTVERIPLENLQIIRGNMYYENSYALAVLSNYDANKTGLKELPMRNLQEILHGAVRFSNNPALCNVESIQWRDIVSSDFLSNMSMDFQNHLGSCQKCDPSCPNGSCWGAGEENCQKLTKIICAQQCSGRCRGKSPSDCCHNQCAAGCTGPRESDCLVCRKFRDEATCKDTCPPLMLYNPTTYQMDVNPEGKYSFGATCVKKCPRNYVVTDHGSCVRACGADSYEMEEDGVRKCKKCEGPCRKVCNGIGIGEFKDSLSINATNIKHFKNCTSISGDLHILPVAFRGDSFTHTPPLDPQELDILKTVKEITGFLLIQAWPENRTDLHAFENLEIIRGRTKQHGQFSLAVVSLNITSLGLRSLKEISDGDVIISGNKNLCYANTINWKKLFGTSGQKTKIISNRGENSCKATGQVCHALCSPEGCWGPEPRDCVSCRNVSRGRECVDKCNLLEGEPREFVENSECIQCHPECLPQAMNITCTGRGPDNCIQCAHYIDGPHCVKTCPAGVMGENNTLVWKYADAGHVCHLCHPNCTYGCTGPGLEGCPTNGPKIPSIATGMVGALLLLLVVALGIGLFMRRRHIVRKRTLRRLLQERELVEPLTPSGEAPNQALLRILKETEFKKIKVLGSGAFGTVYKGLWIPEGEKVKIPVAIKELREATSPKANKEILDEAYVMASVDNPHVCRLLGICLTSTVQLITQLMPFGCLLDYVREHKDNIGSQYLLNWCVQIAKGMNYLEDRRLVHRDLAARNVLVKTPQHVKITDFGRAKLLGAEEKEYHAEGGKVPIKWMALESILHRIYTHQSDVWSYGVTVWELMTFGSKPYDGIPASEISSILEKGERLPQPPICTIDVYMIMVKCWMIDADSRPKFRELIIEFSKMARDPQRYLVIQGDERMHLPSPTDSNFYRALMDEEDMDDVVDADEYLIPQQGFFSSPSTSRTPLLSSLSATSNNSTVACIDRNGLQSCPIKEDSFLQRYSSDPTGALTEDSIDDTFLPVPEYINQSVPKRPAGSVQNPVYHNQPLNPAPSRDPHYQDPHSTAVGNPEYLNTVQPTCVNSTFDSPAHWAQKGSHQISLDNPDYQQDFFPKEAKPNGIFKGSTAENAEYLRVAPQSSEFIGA
Sequence (P00533 whole entry): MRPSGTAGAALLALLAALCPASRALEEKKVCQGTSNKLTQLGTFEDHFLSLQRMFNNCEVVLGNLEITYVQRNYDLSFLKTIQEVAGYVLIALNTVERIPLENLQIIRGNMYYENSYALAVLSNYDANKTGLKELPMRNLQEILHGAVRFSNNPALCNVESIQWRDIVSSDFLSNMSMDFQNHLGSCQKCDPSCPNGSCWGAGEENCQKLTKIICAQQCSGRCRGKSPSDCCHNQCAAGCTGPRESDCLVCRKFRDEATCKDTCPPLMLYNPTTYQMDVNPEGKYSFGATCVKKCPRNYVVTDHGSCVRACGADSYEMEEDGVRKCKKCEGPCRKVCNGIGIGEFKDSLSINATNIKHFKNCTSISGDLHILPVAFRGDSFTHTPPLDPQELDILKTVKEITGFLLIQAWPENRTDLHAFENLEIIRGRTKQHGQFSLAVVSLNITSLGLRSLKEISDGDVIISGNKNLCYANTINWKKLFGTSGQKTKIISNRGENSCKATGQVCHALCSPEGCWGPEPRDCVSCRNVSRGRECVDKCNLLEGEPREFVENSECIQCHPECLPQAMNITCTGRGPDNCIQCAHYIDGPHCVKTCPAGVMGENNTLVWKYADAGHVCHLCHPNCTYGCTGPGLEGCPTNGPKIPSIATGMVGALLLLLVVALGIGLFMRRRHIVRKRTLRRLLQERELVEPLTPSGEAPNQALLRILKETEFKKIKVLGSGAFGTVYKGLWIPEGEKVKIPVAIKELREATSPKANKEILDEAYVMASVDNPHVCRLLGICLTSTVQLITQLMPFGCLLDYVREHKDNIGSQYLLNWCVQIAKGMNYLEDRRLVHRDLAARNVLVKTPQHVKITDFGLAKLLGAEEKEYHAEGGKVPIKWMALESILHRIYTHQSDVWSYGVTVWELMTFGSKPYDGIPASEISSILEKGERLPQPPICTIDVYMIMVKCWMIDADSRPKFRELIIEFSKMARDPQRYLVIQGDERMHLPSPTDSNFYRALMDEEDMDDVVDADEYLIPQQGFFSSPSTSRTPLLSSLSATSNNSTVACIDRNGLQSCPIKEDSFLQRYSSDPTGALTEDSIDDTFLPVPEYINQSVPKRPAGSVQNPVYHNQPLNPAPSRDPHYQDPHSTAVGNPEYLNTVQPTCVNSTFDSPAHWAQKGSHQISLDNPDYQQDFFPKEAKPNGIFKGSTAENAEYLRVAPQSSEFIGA
method-notes: Inhibition of recombinant human EGFR L858R mutant expressed in baculovirus at 10 uM using FAM-labelled peptide as substrate pre-incubated for 10 mins followed by substrate addition by mobility shift assay relative to control
Given measured inhibition, output Condition met if it is greater than or equal to 50% and Condition not met if not.

smi: COc1cc(Br)ccc1Nc1cc(NC(=O)Nc2c(Cl)cccc2Cl)ncn1
label: Condition met
//
smi: COc1cc(NC(=O)Nc2cc(Nc3ccc(OC)c(C)c3)ncn2)cc(OC)c1
label: Condition not met
//
smi: COc1cc(Nc2cc(NC(=O)Nc3c(Cl)cccc3Cl)ncn2)cc(C(F)(F)F)c1
label: Condition met
//
smi: Cc1cc(F)cc(Nc2cc(NC(=O)Nc3c(Cl)cccc3Cl)ncn2)c1
label: Condition met
//
smi: COc1cc(NC(=O)Nc2cc(Nc3cc(C)cc(F)c3)ncn2)cc(OC)c1
label: Condition not met
//
smi: COc1cc(NC(=O)Nc2cc(Nc3ccc(F)c(Cl)c3)ncn2)cc(OC)c1
label: Condition met
//
smi: COc1cc(NC(=O)Nc2cc(Nc3cc(OC)cc(OC)c3)ncn2)cc(OC)c1
label: Condition met
//
smi: CCc1ccc(Nc2cc(NC(=O)Nc3cc(OC)cc(OC)c3)ncn2)cc1
label: Condition not met
//
smi: COc1cc(NC(=O)Nc2cc(Nc3cc(F)ccc3OC)ncn2)cc(OC)c1
label: Condition met
//
smi: CC(C)(C)c1ccc(Nc2cc(NC(=O)Nc3c(Cl)cccc3Cl)ncn2)cc1
label: Condition met
//
smi: COc1cc(NC(=O)Nc2cc(Nc3ccc(OC)c(I)c3)ncn2)cc(OC)c1
label: Condition not met
//
smi: COc1ccc(C(F)(F)F)cc1Nc1cc(NC(=O)Nc2c(Cl)cccc2Cl)ncn1
label: Condition met
//
smi: COc1cc(NC(=O)Nc2cc(Nc3cc(I)ccc3OC)ncn2)cc(OC)c1
label: Condition met

All values here come from ChEMBL document CHEMBL4414679.
